Just for reference, patent US20050124696A1 is where these values come from.

- Protocol: in vitro
- Assay type: cell-based
- Test Parameters: human
- Procedure: HeLa cells were plated in 96-well microtiter plates in 100 μl culture medium (4×10^4/well). After 20 hours, the cells were exposed to the test compounds at different dilutions and incubated for the next 8 h at 37° C. in a 5% CO2 humidified atmosphere. After 6 h incubation, the Alamar Blue was added in an amount equal to 10% of the culture volume (10 μl). Two hours after the addition of the Alamar Blue, the fluorescence was measured using a Victor 1420 microplate reader. […]
In this section, each of the compounds is paired with its reported CC50 at 8 h.

Compound	Assay Metric	Result
COC(=O)C(CSC1CC(=O)CC(O[Si](C)(C)C(C)(C)C)C1)NC(=O)OC(C)(C)C (centres unmarked) [CTM-78]	CC50 at 8 h	> 800 µM

In: Please report the recorded CC50 at 8 h for COC(=O)[C@H](CS[C@H]1CC(=O)CC[C@@H]1O[Si](C)(C)C(C)(C)C)NC(=O)OC(C)(C)C [CTM-68] .
Out: > 800 µM
